Biological target: T1, human FLT3 protein (human, UniProt P36888 27-541, limits assumed)
T1 construct: protein coated in the screening ELISA; also called ELISA FLT3
Assay: colorimetric ELISA, signal over control wells lacking FLT3
READOUT: FLT3/control (ratio)

Completed entries (count: 6):
- BINDER: "FLL154 (VHH, llama anti-FLT3 variable domain; E. coli periplasmic extract) VHH: QVQLQESGGGLVQAGGSLRLSCAVSGRTFSGFGTGWFRQAPGKEREFVAAISWSGGRTHYADSVKGRFTISRDNAKNTVYLQMNSLKPEDTAVYYCAGQVARAYDGNWYSRGDYWGQGTQVTVSS"
  UNIT_INFO: "ratio"
  FLT3/control: 8
- BINDER: "FLL179 (VHH, llama anti-FLT3 variable domain; E. coli periplasmic extract) VHH: QVQLQESGGGLVQAGGSLRLSCKASGVTFSINYIDWYRQAPGKQREWVAQITRDGSSFYADSVKGRFAISRDNAKNTVYLQMNSLKPEDTAVYYCRILSDWGQGTQVTVSS"
  UNIT_INFO: "ratio"
  FLT3/control: 17
- BINDER: "FLL99 (VHH, llama anti-FLT3 variable domain; E. coli periplasmic extract) VHH: QVQLQESGGGLVQAGGSLRLSCAVSGRTFSGFGTGWFRQAPGKEREFVAAISWDGGRTHYADFVKGRFTISRDNAKNTVYLQMNSLKPEDTAVYYCAAQVARAYDSRWYSGGDYWGQGTQVTVSS"
  UNIT_INFO: "ratio"
  FLT3/control: 13
- BINDER: "FLL173 (VHH, llama anti-FLT3 variable domain; E. coli periplasmic extract) VHH: QVQLQESGGGLVQAGGSLRLSCATSGRTFNLYRVGWFRQAPGKEREFVARITWSADITQYTDSVKGRFTISRDNAKNTVYLQMNSLKPEDTAIYYCATTLRKSSGIYHTDDYDYWGQGTQVTVSS"
  UNIT_INFO: "ratio"
  FLT3/control: 6
- BINDER: "FLL84 (VHH, llama anti-FLT3 variable domain; E. coli periplasmic extract) VHH: QVQLQESGGGLVQAGGSLMVSCAASGGTFSSYATGWFRQVPGKEREFIAGISRSGGRTYYAESVKGRFTISRDNAKNTVYLQMNTLKPDDTAVYYCAAARYFTTSVVYTSGDDYDYWGQGTQVTVSS"
  UNIT_INFO: "ratio"
  FLT3/control: 4
- BINDER: "FLL75 (VHH, llama anti-FLT3 variable domain; E. coli periplasmic extract) VHH: QVQLQESGGGLVQAGGSLRLSCAVSGRTFSGFGTGWFRQAPGKEREFVAAISWSGGTTHYADSVKGRFTISRDNAKNTVNLVYLQMNDLRPEDTAVYYCAGQVARAYDSNWYSRGDYWGQGTQVTVSS"
  UNIT_INFO: "ratio"
  FLT3/control: 19

1 = FLL146 (VHH, llama anti-FLT3 variable domain; E. coli periplasmic extract) VHH: QVQLQESGGGLVQAGGSLRLSCAASGVTFSINYIDWYRQAPGKQREWVAQITRDDTSFYADSVKGRFAISRDNAKNTVYLQMNNLRPEDTAVYYCRLLSFWGQGTQVTVSS
2 = FLL137 (VHH, llama anti-FLT3 variable domain; E. coli periplasmic extract) VHH: QVQLQESGGGLVQAGGSLRLSCAASGSTFNNYAMDWFRQAPGKQREWVAQITRDSSSFYADSVKGRFAISRDNAKNTVYLQMNSLKPEDTAVYYCRVLSYWGQGTQVTVSS
Query: Response body: label of entry with the larger FLT3/control; valid values 1 , 2 . Label of pick, please.
Response: 2
